Test system: HB3
experiment: qHTS profiling for inhibitors of Plasmodium falciparum proliferation (AID 504749); note: nearly all actives have a fitted effect of over 60% in size
applied conditions: P. falciparum in erythrocytes, SYBR Green DNA, 72 h; series mostly up to 28.7 µM
Inconclusive results are not listed. Active and inactive are the calls of the source. Calls come from the whole dose curve; as a rule, active = well fitted inhibition curve with a large enough effect; inconclusive = small, poorly fitted or top-dose-only effect; inactive = flat fitted curve, though single readings scatter.
Please reply with one of these outcomes: active, inactive

Completed entries (count: 2):
[ask] Could you check what this test reported for CCCCC[C@H](O)/C=C/[C@@H]1[C@@H](C/C=C\CCCC(=O)O)[C@@H](O)C[C@H]1O ?
[reply] inactive

[ask] // outcome(item) with item = CN1CCN(c2cc3c(nn2)Oc2ccccc2N3C)CC1
[reply] inactive

Further cases:
[ask] Hello, I am checking results. What call was entered for CN(C)c1ccc(C(=C2C=CC(=[N+](C)C)C=C2)c2ccccc2)cc1 ?
[reply] active

[ask] For CC(C(=O)O)c1ccc2c(c1)[nH]c1ccc(Cl)cc12 (stereo not given) , which call appears in the assay record?
[reply] inactive

[ask] Dear colleague, could you share the recorded outcome for NC(=O)C(c1ccccc1)(c1ccccc1)[C@@H]1CCN(CCc2ccc3c(c2)CCO3)C1 when you have a moment?
[reply] inactive

[ask] How did this test come out for Clc1ccccc1-c1nc(-c2ccncc2)no1 ?
[reply] inactive

[ask] What did this assay record as the result for CC1(C)S[C@@H]2[C@H](NC(=O)[C@H](NC(=O)N3CCN(S(C)(=O)=O)C3=O)c3ccccc3)C(=O)N2[C@H]1C(=O)O ?
[reply] inactive

[ask] What is the recorded call for this molecule in the test? c1ccc2sc(SSc3nc4ccccc4s3)nc2c1
[reply] inactive

[ask] Returns: the outcome recorded for CCOC(=O)c1ccccc1O in this assay.
[reply] inactive

[ask] Call for entry CC(=O)[C@]1(O)Cc2c(O)c3c(c(O)c2[C@@H](O[C@H]2C[C@H](N)[C@H](O)[C@H](C)O2)C1)C(=O)c1c(O)cccc1C3=O :
[reply] active

* * *

measured target: M-phase phosphoprotein 8 (Homo sapiens) (UniProt Q99549)
Sequence (Q99549 whole entry, looked up): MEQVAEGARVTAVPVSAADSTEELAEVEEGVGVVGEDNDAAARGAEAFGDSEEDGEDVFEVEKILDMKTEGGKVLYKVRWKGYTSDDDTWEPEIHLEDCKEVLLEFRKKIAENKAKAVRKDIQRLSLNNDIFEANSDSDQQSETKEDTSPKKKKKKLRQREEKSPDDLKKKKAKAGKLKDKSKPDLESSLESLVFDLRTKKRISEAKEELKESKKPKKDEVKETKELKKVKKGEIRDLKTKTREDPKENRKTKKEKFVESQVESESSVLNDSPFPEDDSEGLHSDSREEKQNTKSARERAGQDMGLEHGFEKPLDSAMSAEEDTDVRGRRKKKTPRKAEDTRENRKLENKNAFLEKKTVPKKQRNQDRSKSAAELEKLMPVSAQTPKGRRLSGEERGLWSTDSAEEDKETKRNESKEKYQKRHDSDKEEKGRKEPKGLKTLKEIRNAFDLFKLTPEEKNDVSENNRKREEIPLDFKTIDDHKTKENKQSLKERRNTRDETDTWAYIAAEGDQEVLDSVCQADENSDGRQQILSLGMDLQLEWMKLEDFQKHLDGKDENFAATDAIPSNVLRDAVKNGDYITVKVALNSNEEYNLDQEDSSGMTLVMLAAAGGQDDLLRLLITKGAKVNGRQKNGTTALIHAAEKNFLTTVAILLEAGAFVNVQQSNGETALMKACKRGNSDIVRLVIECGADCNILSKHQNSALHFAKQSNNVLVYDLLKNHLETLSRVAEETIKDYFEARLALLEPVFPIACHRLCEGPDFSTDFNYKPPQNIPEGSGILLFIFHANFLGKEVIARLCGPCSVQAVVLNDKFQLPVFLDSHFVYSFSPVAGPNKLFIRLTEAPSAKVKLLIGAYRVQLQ
experiment: qHTS Validation Assay for Inhibitors for MPP8 Chromodomain Interactions with Methylated Histone Tails (AID 488949);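 note: 50 nM MPP8 with 50 nM peptide preformed then compounds added for 30 min; AlphaScreen signal from MPP8 chromodomain bound to biotinylated H3K9me3 peptide; top concentration of the series differs between compounds; nearly all actives have a fitted effect of over 55% in size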
applied conditions: AlphaScreen MPP8 binding to H3K9me3 peptide; series mostly up to 57.1 µM
Results filed as inconclusive are left out. Active and inactive are the calls of the source. The call rests on the fitted dose curve; in most records, active means well fitted inhibition curve with a large enough effect; inconclusive means small, poorly fitted or top-dose-only effect; inactive means no such curve, though single readings can be large or run the other way.
measured parameter: outcome

See these solved cases before continuing.
Measured outcome, N=c1ccn2c(n1)O[C@H]1[C@H](O)[C@@H](CO)O[C@H]12 : inactive

Entry C=CC(C)=C[C@@]1(C)SC(=O)C(C)=C1O , outcome reported as inactive

Form field outcome, entry NC[C@H]1O[C@@H](n2cnc3c(N)ncnc32)[C@H](O)[C@@H]1O : inactive

Just so you know, measured outcome for CC(C)(C)NCC(O)COc1nsnc1N1CCOCC1 (configuration not stated) came out at inactive

The recorded outcome for OC[C@H]1O[C@@H](n2cnc3c(NC4CCCC4)ncnc32)[C@H](O)[C@@H]1O is inactive

Sample O=C(O)CC1CC(c2ccccc2)=NO1 (configuration not stated) ; outcome observed: inactive

Could you tell me outcome for each of these molecules? They are listed below.
1. CN(C)c1nc(N)c(C(=O)N=C(N)N)nc1Cl
2. NCCCCCCCCCCN

[reply]
["inactive", "inactive"]

Please state, for each entry, its recorded outcome.
1. O=C(O)CCCC[C@@H]1CCSS1
2. COc1ccccc1N1CCN(CCCCNS(=O)(=O)c2cccc3c(N(C)C)cccc23)CC1
3. CCOC(=O)C1=C(C)NC(C)=C(C(=O)OCC)C1c1c(F)c(F)c(F)c(F)c1F
4. CC(C)NCC(O)COc1cccc2ccccc12 (configuration not stated)

[reply]
1: inactive; 2: inactive; 3: inactive; 4: inactive
